Biological target: μ-opioid receptor (Homo sapiens, UniProt P35372)
Sequence (P35372 whole entry, species assumed): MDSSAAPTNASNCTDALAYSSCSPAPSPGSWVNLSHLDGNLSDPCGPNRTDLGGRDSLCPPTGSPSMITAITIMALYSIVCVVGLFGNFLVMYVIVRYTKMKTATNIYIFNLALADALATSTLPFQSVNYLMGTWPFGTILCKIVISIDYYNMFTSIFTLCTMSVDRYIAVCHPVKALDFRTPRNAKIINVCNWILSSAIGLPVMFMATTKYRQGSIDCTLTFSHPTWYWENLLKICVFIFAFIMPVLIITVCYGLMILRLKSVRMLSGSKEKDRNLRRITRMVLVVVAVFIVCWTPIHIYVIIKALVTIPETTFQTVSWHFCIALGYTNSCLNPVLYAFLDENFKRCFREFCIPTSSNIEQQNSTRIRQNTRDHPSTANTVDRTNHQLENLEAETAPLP
Assay: μ-opioid receptor [35S]GTPγS functional assay, U-2 OS cells
Type: biochemical
Set-up: expressed in transfected cells; host or cells: U-2 OS
Details: U-2 OS cells; read-out: GTPγS μ EC50
pEC50: −log10 of the molar value.
MET means recorded pEC50 is 7 or above; NOT MET means it is below 7.

Query: Item CCC[C@@]12CCN(C)C(Cc3ccc(OC)cc31)[C@@H]2N(C)C(=O)Nc1ccc(C#N)cc1 with pEC50 of 7 or above?
Reply: NOT MET

Query: Item CN1CC[C@]2(C)c3cc(O)ccc3CC1C2N(C)C(=O)Nc1ccc(C#N)cc1 (stereo in doubt) with pEC50 of 7 or above?
Reply: MET

Query: Item CN1CC[C@]2(C)c3cc(O)ccc3CC1C2N(C)c1ccc(CCS(N)(=O)=O)cc1 (stereo in doubt) with pEC50 of 7 or above?
Reply: MET

Query: Item CN1CC[C@]2(C)c3cc(O)ccc3C[C@H]1[C@@H]2NCCc1ccc(S(N)(=O)=O)cc1 with pEC50 of 7 or above?
Reply: NOT MET

Query: Item CN1CC[C@@]2(C)c3cc(O)ccc3C[C@@H]1[C@@H]2NCC1CCN(C(=O)OC(C)(C)C)CC1 [Compound 107] with pEC50 of 7 or above?
Reply: MET

Query: Item CN1CC[C@@]2(C)c3cc(O)ccc3C[C@@H]1[C@@H]2NCCc1cccs1 with pEC50 of 7 or above?
Reply: MET

Query: Item CN1CC[C@@]2(C)c3cc(O)ccc3C[C@@H]1[C@@H]2N(C)CC1CCN(C(=O)OC(C)(C)C)CC1 [Compound 31] with pEC50 of 7 or above?
Reply: MET

Query: Item CN1CC[C@@]2(C)c3cc(O)ccc3C[C@@H]1[C@@H]2NC(=O)Nc1nc2cc(F)ccc2s1 with pEC50 of 7 or above?
Reply: MET

Query: Item CN1CC[C@@]2(C)c3cc(O)ccc3C[C@@H]1[C@@H]2N(C)C(=O)Nc1nc2cc(F)ccc2s1 with pEC50 of 7 or above?
Reply: MET

Query: Item CN1CC[C@@]2(C)c3cc(O)ccc3C[C@@H]1[C@@H]2N(C)C(=O)/C=C/c1cccnc1 with pEC50 of 7 or above?
Reply: MET

Query: Item CN(C(=O)Nc1ccc(C#N)cc1)C1C2Cc3ccc(O)cc3[C@@]1(C)CCN2CCc1ccccc1 (stereo in doubt) with pEC50 of 7 or above?
Reply: MET

Query: Item COc1ccc2c(c1)[C@@]1(C)CCN(CC3CC3)[C@H](C2)[C@H]1N(C)C(=O)/C=C/c1ccoc1 with pEC50 of 7 or above?
Reply: NOT MET

Query: Item CN1CC[C@]2(C)c3cc(O)ccc3CC1C2N(C)CCc1ccccc1 (stereo in doubt) with pEC50 of 7 or above?
Reply: MET

* * *

Target: μ-opioid receptor (Homo sapiens)
Assay: μ-opioid receptor [35S]GTPγS functional assay, HEK-293 or CHO cells
Assay endpoint: EC50 (nM)
Give the value in nM but do not write nM after it.

Query: Name the reported EC50 value associated with the compound CN1CC[C@]2(C)c3cc(O)ccc3C[C@@H]1[C@H]2COc1cncc(C(=O)O)c1 [Compound 33]
Reply: 2450

Query: Name the reported EC50 value associated with the compound C[C@]12CCN(CC3CC3)[C@H](Cc3ccc(O)cc31)[C@H]2NS(=O)(=O)c1cccc(C(F)(F)F)c1 [Compound 128]
Reply: 7.67

Query: Name the reported EC50 value associated with the compound COc1ccc2c(c1)[C@@]1(C)CCN(C)C(C2)C1N1CCC(N)CC1 (stereo partly drawn) [Compound 70]
Reply: 9380

Query: Name the reported EC50 value associated with the compound CN1CC[C@@]2(C)c3cc(O)ccc3C[C@@H]1[C@@H]2N(C)CC1CCN(C(=O)OC(C)(C)C)CC1 [Compound 31]
Reply: 12.3

Query: Name the reported EC50 value associated with the compound COc1ccc2c(c1)[C@@]1(C)CCN(C)C(C2)[C@@H]1c1cccc(OCc2ccccc2)c1 [Compound 61]
Reply: 5760

Query: Name the reported EC50 value associated with the compound CC(C)CC(NC(=O)N(C)C1[C@H]2Cc3ccc(O)cc3[C@]1(C)CCN2C)C(=O)O (stereo in doubt) [Compound 76]
Reply: 811

Query: Name the reported EC50 value associated with the compound CN1CC[C@]2(C)c3cc(O)ccc3CC1C2N(C)C(=O)NCCC(=O)O (stereo in doubt) [Compound 68]
Reply: 550

Query: Name the reported EC50 value associated with the compound CN[C@@H]1[C@H]2Cc3ccc(OC)cc3[C@@]1(C)CCN2CC1CC1 [Compound 56]
Reply: 3810

Query: Name the reported EC50 value associated with the compound CN1CC[C@]2(C)c3cc(O)ccc3CC1[C@@H]2COc1cc(C(N)=O)ccn1 [Compound 53]
Reply: 1110

Query: Name the reported EC50 value associated with the compound CN(C(=O)Nc1ccc(C#N)cc1)C1C2Cc3ccc(O)cc3[C@@]1(C)CCN2Cc1ccoc1 (stereo in doubt) [Compound 90]
Reply: 5.92

Query: Name the reported EC50 value associated with the compound CN1CC[C@]2(C)c3cc(O)ccc3CC1[C@@H]2CC(=O)Nc1ccc(C(=O)O)cc1 [Compound 32]
Reply: 336

* * *

Assign Ki to each entry below.
Target: human opioid receptor-like receptor (ORL-1) (Homo sapiens, UniProt P41146)
Construct: host or cells: HEK-293
Sequence (P41146 whole entry): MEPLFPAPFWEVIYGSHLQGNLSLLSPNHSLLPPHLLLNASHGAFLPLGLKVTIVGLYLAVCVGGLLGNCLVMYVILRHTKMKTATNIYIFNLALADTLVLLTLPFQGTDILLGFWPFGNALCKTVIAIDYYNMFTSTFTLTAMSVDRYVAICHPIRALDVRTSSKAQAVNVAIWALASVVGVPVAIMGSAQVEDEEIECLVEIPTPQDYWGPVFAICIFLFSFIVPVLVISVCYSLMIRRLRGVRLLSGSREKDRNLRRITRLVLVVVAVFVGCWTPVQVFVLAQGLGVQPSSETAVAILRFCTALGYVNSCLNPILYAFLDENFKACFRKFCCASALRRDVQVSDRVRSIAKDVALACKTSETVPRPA
Assay: ORL-1 receptor radioligand binding assay ([3H]-nociceptin)
Conditions: HEK-293 or CHO cells; bound in μM

Query: Name the reported Ki value associated with the compound CN1CC[C@@]2(C)c3cc(O)ccc3C[C@@H]1[C@@H]2NCCc1ccc(S(N)(=O)=O)cc1
Reply: > 20 µM

Query: Name the reported Ki value associated with the compound CN1CC[C@]2(C)c3cc(O)ccc3C[C@H]1[C@@H]2NCCc1ccc(S(N)(=O)=O)cc1
Reply: > 20 µM

Query: Name the reported Ki value associated with the compound CN1CC[C@]2(C)c3cc(O)ccc3C[C@H]1[C@H]2NCCc1ccc(S(N)(=O)=O)cc1
Reply: > 20 µM

Query: Name the reported Ki value associated with the compound CN1CC[C@@]2(C)c3cc(O)ccc3C[C@@H]1[C@H]2NCCc1ccc(S(N)(=O)=O)cc1
Reply: > 20 µM

* * *

Target: μ-opioid receptor (Homo sapiens, UniProt P35372)
Experiment: μ-opioid receptor [35S]GTPγS functional assay, U-2 OS cells
Type: biochemical
Parameters: expressed in transfected cells; host or cells: U-2 OS
Conditions: U-2 OS cells; read-out: GTPγS μ EC50
Assign EC50 to each entry below.
Number first, unit second.

Query: Name the reported EC50 value associated with the compound CN1CC[C@@]2(C)c3cc(O)ccc3C[C@@H]1[C@H]2N(C)C(=O)c1ccc(C(F)(F)F)cn1 [Compound 126]
Reply: 147 nM

Query: Name the reported EC50 value associated with the compound CN1CC[C@]2(C)c3cc(O)ccc3C[C@@H]1[C@H]2N(C)C(=O)Nc1ccc(C#N)cc1 [Compound 79]
Reply: 2200 nM

Query: Name the reported EC50 value associated with the compound CN1CC[C@@]2(C)c3cc(O)ccc3C[C@@H]1[C@H]2N(C)C(=O)C1CCCCC1 [Compound 120]
Reply: 2940 nM

Query: Name the reported EC50 value associated with the compound CCC[C@@]12CCN(C)C(Cc3ccc(O)cc31)[C@H]2N(C)C(=O)Nc1ccc(C#N)cc1 [Compound 137]
Reply: 1320 nM

Query: Name the reported EC50 value associated with the compound CN(C)C(=O)C(CCN1CC[C@]2(C)c3cc(O)ccc3CC1C2N(C)C(=O)Nc1ccc(C#N)cc1)(c1ccccc1)c1ccccc1 (stereo in doubt) [Compound 84]
Reply: 83.9 nM

Query: Name the reported EC50 value associated with the compound CN1CC[C@@]2(C)c3cc(O)ccc3C[C@@H]1[C@@H]2NCCc1ccc(Cl)c(Cl)c1 [Compound 98]
Reply: 0.3 nM

* * *

Assign pKi to each entry below.
Target: κ opioid receptor (Homo sapiens)
Sequence (P41145 whole entry): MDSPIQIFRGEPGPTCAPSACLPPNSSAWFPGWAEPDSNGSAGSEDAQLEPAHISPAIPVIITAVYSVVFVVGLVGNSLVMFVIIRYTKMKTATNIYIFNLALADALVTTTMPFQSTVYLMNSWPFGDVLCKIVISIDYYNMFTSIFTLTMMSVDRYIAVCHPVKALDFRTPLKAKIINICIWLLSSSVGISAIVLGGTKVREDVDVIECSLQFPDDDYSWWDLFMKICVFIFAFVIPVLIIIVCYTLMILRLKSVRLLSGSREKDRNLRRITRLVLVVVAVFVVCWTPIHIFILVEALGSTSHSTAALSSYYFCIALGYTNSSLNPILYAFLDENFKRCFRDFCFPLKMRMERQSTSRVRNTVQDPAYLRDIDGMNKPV
Assay: biochemical
Type: binding
Set-up: expressed in transfected cells; host or cells: HEK 293 (in-house membrane prep)
Details: HEK-293 or CHO cells
Interpret pKi as the negative base-10 log of the concentration measured in mol/L.

Query: Name the reported pKi value associated with the molecule CN[C@H]1C2Cc3ccc(OC)cc3[C@@]1(C)CCN2C [Compound 9]
Reply: 4.72

Query: Name the reported pKi value associated with the molecule CN1CC[C@]2(C)c3cc(O)ccc3CC1C2N(C)C(=O)CCC(=O)O (stereo in doubt) [Compound 28]
Reply: 4.74

Query: Name the reported pKi value associated with the molecule CN1CC[C@]2(C)c3cc(O)ccc3CC1[C@@H]2N1Cc2ccccc2NC1=O [Compound 91]
Reply: 6.76

Query: Name the reported pKi value associated with the molecule COc1ccc2c(c1)[C@@]1(C)CCN(C)C(C2)[C@@H]1c1cccc(C#N)c1 [Compound 36]
Reply: 5.38
